Reference source for all entries: PubChem BioAssay (NCI)

# protocol: NCI Yeast Anticancer Drug Screen. Data for the mec2-1 strain (AID 157)
# conditionSummary: S. cerevisiae mec2-1 strain, at 3.7 µM, stronger effect = higher value
The panel holds about 79,000 compounds, 15% with a hit somewhere; the sample as a whole holds those more often.
What growth inhibition was measured for each of the following?
Give just the number in %; leave the unit off.

Query (compound): CCOC(=O)C(NC(=O)c1ccccc1)[CH](c1ccccc1)[Sn]([c]1ccccc1)([c]1ccccc1)[c]1ccccc1 (stereo not drawn) ; field requested: growth inhibition
1

Query (compound): `O=c1[nH]cc(F)c(=O)[nH]1` ; field requested: growth inhibition
12

Query (compound): `CN(C)N=Nc1ccc(NC=O)cc1` ; field requested: growth inhibition
13

Query (compound): `CN(C)c1ccc(C(c2ccc(Cl)cc2)c2ccc(N(C)C)cc2)cc1` ; field requested: growth inhibition
98

Query (compound): `Cc1ccnc(NS(=O)(=O)c2ccc(Nc3c4ccccc4nc4ccccc34)cc2)n1` ; field requested: growth inhibition
32

Query (compound): `O=S(=O)(O)CC[S][Sn]([S]CCS(=O)(=O)O)([c]1ccccc1)[c]1ccccc1` ; field requested: growth inhibition
11

Query (compound): `c1cc(Nc2ccc3c(c2)OCO3)c2cc(C3CCCCC3)ccc2n1` ; field requested: growth inhibition
-2

Query (compound): `CN(C)c1ccc(/C=C/c2ccnc3ccc4ccccc4c23)cc1` ; field requested: growth inhibition
-7

* * *

# protocol: NCI Yeast Anticancer Drug Screen. Data for the rad50EPP+ strain (AID 151);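 also: 0% = growth of vehicle-treated control cultures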
# conditionSummary: S. cerevisiae rad50 mutant strain, at 1.2 µM, stronger effect = higher value
About 79,000 compounds went through this panel and 15% of them were active in at least one assay; those are over-represented in the sample as a whole.
Binary call on growth inhibition: yes (1) from -10% upward, no (0) beneath that.

Entry `BrC/C=C/C[P+](c1ccccc1)(c1ccccc1)c1ccccc1` : is its growth inhibition no less than -10%?
no (0)

Entry `C[n+]1c(-c2ccc(NC(=O)c3ccc(C(=O)Nc4ccc(-c5cn6ccccc6[n+]5C)cc4)cc3)cc2)cn2ccccc21` : is its growth inhibition no less than -10%?
no (0)

Entry `Oc1ccc(Cc2nccc3cc(O)c(O)cc23)cc1O` : is its growth inhibition no less than -10%?
yes (1)

Entry c1ccc2cc(OCC3CO3)c(OCC3CO3)cc2c1 (stereo unspecified) : is its growth inhibition no less than -10%?
no (0)

Entry `O=CC(=C(I)I)c1ccccc1` : is its growth inhibition no less than -10%?
yes (1)

Entry `CNC(=O)OCc1c(COC(=O)NC)c(C)n(-c2ccc(Cl)c(Cl)c2)c1C` : is its growth inhibition no less than -10%?
no (0)

* * *

# protocol: NCI Yeast Anticancer Drug Screen. Data for the rad18 strain (AID 177)
# conditionSummary: S. cerevisiae rad18 mutant growth inhibition; at 3.7 µM; stronger effect = higher value
The panel holds about 79,000 compounds, 15% with a hit somewhere; the sample as a whole holds those more often. Calls of active or inactive are those of the source. No stated cut-off is given here; in the data, active means growth inhibition above about 70%; inactive means the rest.
What growth inhibition was measured for each of the following?

Query (compound): Cc1c(N=Nc2ccc(Cl)cc2)c(C)n(C2OC(CO)C(O)C(O)C2O)c(=S)c1C#N (stereo not given) ; field requested: growth inhibition
8% (inactive)

Query (compound): CC(C)c1ccc(C2NC(=S)NC3=C2c2ccccc2C3=O)cc1 (stereo not given) ; field requested: growth inhibition
8% (inactive)

Query (compound): `CCCC#CCOC(=O)c1cc([N+](=O)[O-])cc([N+](=O)[O-])c1` ; field requested: growth inhibition
81% (active)

Query (compound): `COc1ccc(C(=O)OCCc2ccccc2)cc1` ; field requested: growth inhibition
3% (inactive)

Query (compound): `O=Cc1ccccc1B(O)O` ; field requested: growth inhibition
34% (inactive)

Query (compound): `CCOc1nc(OCC)nc(-c2cccn2-c2ccccc2)n1` ; field requested: growth inhibition
15% (inactive)

Query (compound): `Oc1ccc(Cc2nccc3cc(O)c(O)cc23)cc1O` ; field requested: growth inhibition
4% (inactive)

Query (compound): `NNc1nnc(-c2ccccc2)nc1Cc1ccccc1` ; field requested: growth inhibition
-30% (inactive)

Query (compound): `O=C(CSS(=O)(=O)O)c1ccccc1` ; field requested: growth inhibition
20% (inactive)

Query (compound): CC1(C)CC(=O)C(C(CC(c2ccccc2)c2cc3c(cc2O)OCO3)C2=C(O)CC(C)(C)CC2=O)=C(O)C1 (stereo not given) ; field requested: growth inhibition
5% (inactive)

Query (compound): `CN(C)N=Nc1ccc(NC=O)cc1` ; field requested: growth inhibition
24% (inactive)

Query (compound): `O=c1c(Br)cc2c(-c3ccccc3)c3cc(Br)c(O)c(Br)c3oc-2c1Br` ; field requested: growth inhibition
9% (inactive)

Query (compound): `O=c1[nH]cc(F)c(=O)[nH]1` ; field requested: growth inhibition
10% (inactive)

Query (compound): `O=C(CCCN1CCC2(CC1)OC(=O)N(c1ccccc1)C2=O)c1ccccc1` ; field requested: growth inhibition
70% (active)

Query (compound): `c1cncc(C(Nc2cccc3cccnc23)Nc2cccc3cccnc23)c1` ; field requested: growth inhibition
89% (active)

Query (compound): `COc1ccc(CCN2C(=O)C=CC2=O)cc1OC` ; field requested: growth inhibition
15% (inactive)

Query (compound): `O=[N+]([O-])C(=C(NCc1ccccc1)NCc1ccccc1)C(Cl)=C(Cl)Cl` ; field requested: growth inhibition
1% (inactive)

Query (compound): c1ccc(C2=NNC3c4ccccc4-c4ccccc4N3C2)cc1 (stereo not given) ; field requested: growth inhibition
0% (inactive)

Query (compound): c1ccc(N/N=C2\CC(c3ccccc3)Oc3ccccc32)cc1 (stereo not given) ; field requested: growth inhibition
14% (inactive)

Query (compound): `C[n+]1c(-c2ccc(NC(=O)c3ccc(C(=O)Nc4ccc(-c5cn6ccccc6[n+]5C)cc4)cc3)cc2)cn2ccccc21` ; field requested: growth inhibition
2% (inactive)

Query (compound): `Cc1ccnc(NS(=O)(=O)c2ccc(Nc3c4ccccc4nc4ccccc34)cc2)n1` ; field requested: growth inhibition
19% (inactive)

Query (compound): `CN(C)CCC(=O)c1c[nH]c2ccccc12` ; field requested: growth inhibition
-62% (inactive)

Query (compound): `CC1=Cc2ccc(C)cc2C(=O)C1=O` ; field requested: growth inhibition
28% (inactive)

Query (compound): `CN(C)c1ccc(C(c2ccc(Cl)cc2)c2ccc(N(C)C)cc2)cc1` ; field requested: growth inhibition
98% (active)

Query (compound): `C[Si](C)(C)Cc1ccccc1C(=O)O` ; field requested: growth inhibition
3% (inactive)

Query (compound): `COc1ccc2c(C)cc(N/N=C/c3sccc3C)nc2c1` ; field requested: growth inhibition
-4% (inactive)

Query (compound): `CCOC(=O)C1=C(C)NC(C)=C(C(=O)OCC)C1c1ccc(Cl)cc1` ; field requested: growth inhibition
14% (inactive)

Query (compound): `Oc1ccc(Br)cc1C=Nc1cccc(C(F)(F)F)c1` ; field requested: growth inhibition
-12% (inactive)

Query (compound): `CCCCCC/C(C)=N/Nc1ccc([N+](=O)[O-])cc1[N+](=O)[O-]` ; field requested: growth inhibition
-9% (inactive)

Query (compound): CCCCCCCCCCCCCCCCOCC(Cl)COP(=O)(O)OP(=O)(O)OCC1OC(n2cnc3c(N)ncnc32)C(O)C1O (stereo not given) ; field requested: growth inhibition
0% (inactive)

Query (compound): `Cc1ccc(Cl)c2c(=O)c3ccccc3[nH]c12` ; field requested: growth inhibition
2% (inactive)

Query (compound): `Cc1ccc(C(C)C)c(C(=C2C=CC(=[N+](C)C)C=C2)c2c(C(C)C)ccc(C)c2O)c1O` ; field requested: growth inhibition
25% (inactive)

Query (compound): CCCCCCC(CCl)c1sc(-c2csc(CCNC(=O)OC(C)(C)C)n2)nc1C(=O)OC (stereo not given) ; field requested: growth inhibition
2% (inactive)

Query (compound): CC1C=CN(N(C)C)C2=C1C(=O)c1cnccc1C2=O (stereo not given) ; field requested: growth inhibition
87% (active)

Query (compound): `O=C(c1c(F)c(F)c(F)c(F)c1F)c1c(F)c(F)c(F)c(F)c1F` ; field requested: growth inhibition
56% (inactive)

Query (compound): `Cc1nc2ccccc2c(=O)n1NC(=O)c1ccc(CS)cc1` ; field requested: growth inhibition
12% (inactive)

Query (compound): `COc1ccc2nc3cccc([N+](=O)[O-])c3c(NCCCO)c2c1` ; field requested: growth inhibition
96% (active)

Query (compound): `CCOC(=O)C1=C(C)NC(C)=C(C(=O)OCC)C1c1cccc([N+](=O)[O-])c1` ; field requested: growth inhibition
32% (inactive)

Query (compound): `COc1cc(NCCCCCNC(C)C)c2ncccc2c1Cl` ; field requested: growth inhibition
-4% (inactive)

Query (compound): O=C1OC(/C=C/c2ccccc2)Sc2ccccc21 (stereo not given) ; field requested: growth inhibition
4% (inactive)
